meta.source: PubChem BioAssay

experiment: RAM pathway blockade in budding yeast – dse1pr::URA3 reporter, 5-FOA selection, pilot screen (AID 869);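 note: 0% = DMSO wells with no growth and 100% = 10 µM 1-NA-PP1 with full growth; RAM network block rescues cells from 5-FOA so hits raise OD615 growth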; conditions: S. cerevisiae dse1pr::URA3 5-FOA growth, OD615, 2 d; at 10 µM; active compounds read high; strain carries analog-sensitive mutant Cbk1 kinase
Label t for high-side inhibition (at or above 1%) and f for low-side inhibition (below it).

                                    compound  group_label
 0               CN(C)c1oc(-c2ccccc2F)nc1C#N            f
 1  O=C(NCc1cccs1)C1CCCN1S(=O)(=O)c1ccccc1F (stereo not drawn)            f
 2   COc1ccc(-c2nc(C#N)c(NCCCN3CCOCC3)o2)cc1            t
 3  Cc1ccccc1N1C(=O)c2sc3nc4c(c(=O)n3c2C1=O)CCC4            t
 4  CCCc1cc(C(=O)Nc2sc(C(C)=O)c(C)c2C(=O)OCC)no1            t
 5  Cc1onc(-c2ccccc2Cl)c1C(=O)Nc1cnn(Cc2ccccc2)c1            t
 6        Cc1ccc(-c2nc(-c3ccccc3)no2)c(Cl)c1            t
 7  CCOC(=O)c1oc2c(CN3CCN(C)CC3)c(O)ccc2c(=O)c1-c1ccccc1OC            t
 8  CCOC(=O)C1=C(N)OC2=C(C(=O)CCC2)C1c1cccs1 (stereo not drawn)            f
 9  COCCCNC(=O)Cn1cc2c(n1)CCC(C)C2 (stereo not drawn)            t
10       COc1cccc(NC(=O)Cn2cc3c(n2)CCCCC3)c1            t
11               Cc1cc(C)nc(SCc2ccccc2C#N)n1            f
12  COc1ccc(-n2c(Cc3cccn3C)nnc2SCC(=O)Nc2ccccc2)cc1            t

----------
test: S. cerevisiae growth inhibition in permissive medium (OD615), pilot counter-assay for S. cerevisiae lifespan shortening project, permissive growth control (AID 705); conditions: OD615, 24 h, at 10 µM, active compounds read high
measure: growth inhibition (%)

>>> print(df.to_string())
                                   compound            measure  observed_value
0  CCOc1ccc(NC2c3ccccc3C(=O)N2Cc2ccco2)cc1 (centres undefined)  growth inhibition            3.67
1       CCOc1ccc(CCNc2cc(C)nc3ncnn23)cc1OCC  growth inhibition           -1.77
2       Cn1c(NC(=O)c2ccccc2F)cc(=O)n(C)c1=O  growth inhibition           -0.14
3  Cc1c(C(=O)OCc2ccccc2)[nH]c2c1C(=O)CC(c1ccco1)C2 (centres undefined)  growth inhibition           -15.1

----------
biological target: Receptor tyrosine-protein kinase erbB-2 (Homo sapiens) (UniProt P04626); experiment: Her2 expression decrease, cell viability multiplex – SKBR3 breast tumor cells, AlphaScreen, ATP viability, primary screen (AID 461); conditions: 18-24 h, at 10 µM, active compounds read low;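 note: lower value means less Her2 protein in the cells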
Sequence (P04626 whole entry, looked up): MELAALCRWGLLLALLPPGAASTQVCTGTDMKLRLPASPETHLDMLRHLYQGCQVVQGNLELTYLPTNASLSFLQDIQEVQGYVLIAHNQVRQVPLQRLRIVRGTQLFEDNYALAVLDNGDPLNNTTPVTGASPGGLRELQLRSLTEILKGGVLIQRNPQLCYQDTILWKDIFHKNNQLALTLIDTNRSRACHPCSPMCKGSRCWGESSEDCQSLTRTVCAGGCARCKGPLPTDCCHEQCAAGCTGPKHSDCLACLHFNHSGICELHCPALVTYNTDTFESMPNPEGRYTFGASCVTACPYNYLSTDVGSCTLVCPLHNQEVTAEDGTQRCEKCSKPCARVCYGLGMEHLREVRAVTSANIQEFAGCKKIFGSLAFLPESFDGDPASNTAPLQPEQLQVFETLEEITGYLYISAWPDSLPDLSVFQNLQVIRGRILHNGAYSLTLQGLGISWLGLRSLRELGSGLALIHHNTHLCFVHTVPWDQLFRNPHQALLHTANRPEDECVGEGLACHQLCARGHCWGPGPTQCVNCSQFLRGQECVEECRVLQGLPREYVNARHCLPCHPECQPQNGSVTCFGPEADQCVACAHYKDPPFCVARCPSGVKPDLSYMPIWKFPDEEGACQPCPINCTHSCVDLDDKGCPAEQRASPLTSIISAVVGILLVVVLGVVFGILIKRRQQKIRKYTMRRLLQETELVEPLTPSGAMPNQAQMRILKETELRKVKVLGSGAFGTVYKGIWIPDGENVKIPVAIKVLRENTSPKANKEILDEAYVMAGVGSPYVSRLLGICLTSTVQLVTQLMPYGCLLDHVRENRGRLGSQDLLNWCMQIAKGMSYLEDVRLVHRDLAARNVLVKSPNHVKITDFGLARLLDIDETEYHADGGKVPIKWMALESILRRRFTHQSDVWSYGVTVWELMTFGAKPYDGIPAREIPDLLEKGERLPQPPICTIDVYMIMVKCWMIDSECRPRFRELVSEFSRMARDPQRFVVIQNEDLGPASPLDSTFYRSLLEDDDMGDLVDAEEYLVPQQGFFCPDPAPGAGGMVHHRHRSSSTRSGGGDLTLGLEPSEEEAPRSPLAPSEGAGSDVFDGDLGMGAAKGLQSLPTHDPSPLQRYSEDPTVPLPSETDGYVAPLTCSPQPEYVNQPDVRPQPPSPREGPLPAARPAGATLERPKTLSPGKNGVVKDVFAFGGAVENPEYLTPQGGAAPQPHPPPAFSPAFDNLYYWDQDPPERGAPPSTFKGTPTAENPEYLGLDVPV
The label is fulfilled for Her2 level below 90% and not fulfilled for Her2 level equal to or exceeding 90%.

>>> df
                           molecular_string    group_label
0  CC(C)n1c(CN2CCN(C)CC2)nc2c1c(=O)n(C)c(=O)n2C      fulfilled
1                  CN(C)CCCNC(=O)CCC1CCCCC1      fulfilled
2     CCSc1oc(-c2ccco2)nc1S(=O)(=O)c1ccccc1  not fulfilled
3     COc1ccc(NC(=O)c2cnc3n(c2=O)CCS3)cc1OC  not fulfilled
4  COc1ccc(-n2ncc3c(N4CCN(c5cccc(C)c5C)CC4)ncnc32)cc1      fulfilled
5    Cc1ccc(N(C)C(=O)N2CCN(c3ccccn3)CC2)cc1  not fulfilled
6       CCN1CCN(CCCNC(=O)c2cc3sccc3n2CC)CC1  not fulfilled
